Tested on: K4 kissing-loop RNA reporter;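 further: bound reporter read as fluorescence of individual clusters on recovered sequencing chips by microscopy, with normalized cluster intensities fitted with a binding model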
ASSAY_PROTOCOL: apparent KD of K4 kissing-loop reporter; higher = weaker reporter binding
RUN_PARAMETERS: Eterna round: R107; input ligand: tryptophan 2.4 mM
Assign apparent KD of K4 kissing-loop reporter to each entry below.
Dear colleague, please return just the value in nM, with no unit written.

Lookup: apparent KD of K4 kissing-loop reporter / K4 kissing-loop RNA reporter / UAGUCCUAGUGAUCGUUAUCAAGUGGUGGGCGAGGACCGGUACGGCCGCCACUCGACUAUGCAGUGAUGUUGCAAUCCGGACAAU [Exclusion - Tryptophan A (Freestyle 14)] 213

Form: Entry = ACGGGCGGCUGAAGGAGCGGGCGGGCCCGAGUGAUGUUCGGGUGGGCCGUGAGGUCCGGAGCCCAGGUAGGUCGCGGUUCCGCCU [#2 Same State - Arginine B Attempt #14 (HarryS)] | System = K4 kissing-loop RNA reporter | apparent KD of K4 kissing-loop reporter = ____ 181

GET /values?readout=apparent KD of K4 kissing-loop reporter&system=K4 kissing-loop RNA reporter&item= AAACAUCACUGGGAGUGAUGUUCUCAGUGACGAGGACCGGUACGGCCGCCACUCGCGAGAGAUAUAAAUGAGUAAUGACAUCAUU [Excl Tryptophan A V2] 325

State its apparent KD of K4 kissing-loop reporter on K4 kissing-loop RNA reporter: GCUCGGGAGUGAUGUUCCAAGUGGUGUUAACGAGGACCGGUACGGCCGCCACUCGAUACGGCCGGGCCGUAGGAUAAACUGGAGC [Same State - Tryptophan A (Freestyle 13)] 152

State its apparent KD of K4 kissing-loop reporter on K4 kissing-loop RNA reporter: GCCUUAUAUCGAGCUACAGCUCGAUUUGGUCGAGGACCGGUACGGCCGCCACUCGAAUGAUAGUGAUGUUAUCAUUAUGGCCUAA [JR_ExcTryptoA_Sub022] 148

Give apparent KD of K4 kissing-loop reporter (K4 kissing-loop RNA reporter) of the following sequence: UGUUUUUACUGAAGGAGCGGCAAUUGAUACGUAGAUAUAGUGAUGUUAUAUAAGAUAGAGAGCCAGGUAGGUCGCAGAGUUUUUC [ExArgB.Z] 154

Fill in the recorded apparent KD of K4 kissing-loop reporter for this sequence, with K4 kissing-loop RNA reporter as test system: AAAGCAGUAUACUGCAAGACCUAUACUGAUACCAGAGUCAAUUGACUCCCUUGGCAGCGGAUCGAGUGAUGUUCGUAAGGUCAAA [AK4.1 SS Theophylline A] 617

I'm curious: which apparent KD of K4 kissing-loop reporter was measured for UAGGAGUGAUGUUCCAUAUCUUGAGCCGAAGGAGCGCCUUUAUAGGCAGGUAGGUCGCGGCAGAAGGUACCAGUGAUGUUGGAAA [Same State Arginine A GF6] tested on K4 kissing-loop RNA reporter? 135

Form entry - test system: K4 kissing-loop RNA reporter; read-out: apparent KD of K4 kissing-loop reporter; sequence: `GCCGUACGCAUGGAUACCAGUCUUAGAGUGAUGUUCUAUACGAUUGCGCCUGGAUCAAUGGACCCUUGGCAGCCAUGCGUACGGC` 124

For the record UAUAUAGUGAUGUUAUAUAUACAUUCGGAAGGAGCGUGGUAAAACACAGGUAGGUCGCUGAAAUAAUUAAAAUAAUUUUCUUUUU [AstrosSSArgA#1] , what value of apparent KD of K4 kissing-loop reporter is listed for K4 kissing-loop RNA reporter? 231

// map `AUAGAGAAGUGGCACCCUCACUAAAACAGUCGAGGACCGGUACGGCCGCCACUCGCGCGCUUUAGUGAUGUUAAAGAUGUGAAAA` to recorded apparent KD of K4 kissing-loop reporter (system: K4 kissing-loop RNA reporter) 215

Lab note: need apparent KD of K4 kissing-loop reporter for CCCUCACGAGUGAUGUUCGUAGGGUACAGUCAGGAUAUCAUGCGGUUGAGAAGGGACAGAGAGGGCGGCGGCGGGUUGCUCAUCG [Rabele] on K4 kissing-loop RNA reporter, anyone have it? 124
